System: KGN
Design: 14-day clonogenic growth inhibition assay, human cancer cell line panel
Settings: 14-day clonogenic assay; inhibitor; read-out: Table S1. IC50 of CCT271850 determined by MTT and clonogenic assays (CA). / All cell lines were tested at least 2 times. / 14-day CA
Readout: IC50 (nM)
Number only, in nM; omit the unit.

IC50 measured on COc1cc(-c2cnn(C)c2)ccc1Nc1ncc2ccnc(N[C@@H](C)C(C)(C)C)c2n1 [34h, CCT271850] = 106
